# Target desc: IDO1 (Homo sapiens)
# Sequence (P14902 whole entry): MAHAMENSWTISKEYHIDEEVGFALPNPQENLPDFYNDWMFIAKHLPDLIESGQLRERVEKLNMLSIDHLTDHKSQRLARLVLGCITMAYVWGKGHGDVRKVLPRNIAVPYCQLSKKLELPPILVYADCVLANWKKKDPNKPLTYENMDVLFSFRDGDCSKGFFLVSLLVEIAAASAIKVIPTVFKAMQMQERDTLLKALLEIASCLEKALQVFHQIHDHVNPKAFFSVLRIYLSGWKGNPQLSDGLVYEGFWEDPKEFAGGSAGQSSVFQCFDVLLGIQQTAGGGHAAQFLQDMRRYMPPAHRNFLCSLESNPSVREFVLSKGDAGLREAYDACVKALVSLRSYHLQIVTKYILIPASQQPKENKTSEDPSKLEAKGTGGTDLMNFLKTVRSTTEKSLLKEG
# Assay method text: IDO1 Cellular Assay in HeLa Cells Stimulated with IFNγ
# Assay type: cell-based
# Condition set: about 48 hours, read-out: Hela IC50
Test readout: IC50 (nM)

Answered examples (8):
>>> endpoint_value("O=C(C1CC1)N1CCCc2cc(C3(C(=O)Nc4ccc(F)cn4)CCC3)ccc21 [Example 96]")
6.2
>>> endpoint_value("CC(C(=O)Nc1ccc(F)cc1)c1ccc2c(c1)CCCN2Cc1cccc(Cl)c1 (single isomer, unassigned) [Example 226]")
43.6
>>> endpoint_value("Cc1nc(C(=O)N2CCCc3cc([C@@H](C)C(=O)Nc4ccc(F)cn4)ccc32)no1 [Example 64]")
44.4
>>> endpoint_value("Cc1nccc(N2CCCc3nc(C4(NC(=O)c5ccc(F)c(F)c5)CC4)ccc32)n1 [Example 302]")
2.92
>>> endpoint_value("CC(C)[C@@H](O)C(=O)N1CCCc2cc([C@H](C)C(=O)Nc3ccc(F)cc3)ccc21 (single isomer, unassigned) [Example 72]")
43.8
>>> endpoint_value("CC(C(=O)Nc1ccc(F)cc1)c1ccc2c(c1)CCCN2C(=O)C1CCCCO1 (stereo not drawn) [Example 37]")
4.8
>>> endpoint_value("CC(C)CC(=O)N1CCCc2cc(CNC(=O)c3ccc(F)cc3)ccc21 [Example 11]")
41.4
>>> endpoint_value("O=C(Nc1ccc(F)cc1)C1(c2ccc3c(n2)CCCN3c2ccnc(C(F)(F)F)n2)CCC1 [Example 407]")
1.49

a. CC(C)(O)c1cccc(N2CCCc3nc(C4(NC(=O)c5ccc(F)cc5)CC4)ccc32)n1 [Example 297]
b. Cc1n[nH]c(C(=O)N2CCCc3cc(C4(C(=O)Nc5ccc(F)cc5)CCC4)ccc32)n1 [Example 109]
c. Cc1cccc(N2CCCc3nc(C4(C(=O)Nc5ccc(Cl)cc5)CCC4)ccc32)n1 [Example 404]
d. C[C@H](C(=O)Nc1ccc(F)cc1)c1ccc2c(c1)CCCN2C(=O)CCOC(C)(C)C [Example 70]
Request: Order each entry by recorded IC50, climbing from the minimum. Put the labels in the requested order and list them out.
Result: c, b, a, d

Entry source: patent US12275729B2
